Where do the numbers come from? From ChEMBL document CHEMBL1154014.

- STUDY_SYSTEM: Peroxisome proliferator-activated receptor gamma (Homo sapiens)
- METHOD: Agonist activity at human PPARgamma expressed in african green monkey COS7 cells by Gal4 transactivation assay
READOUT_KIND: EC50 (µM)

A selection of reference data follows.
compound="CCCCC(Sc1ccc(OCCCOc2ccccc2)cc1)C(=O)O (centres undefined)" readout_kind=EC50 endpoint_unit=µM meas_value=2.6
compound=CCCC[C@H](Sc1ccc(OCCCOc2cccc(C)c2C)cc1)C(=O)O readout_kind=EC50 endpoint_unit=µM meas_value=9.9
compound="CCCCC(Sc1ccc(OCCCOc2ccc(Cl)c(C(F)(F)F)c2)cc1)C(=O)O (centres undefined)" readout_kind=EC50 endpoint_unit=µM meas_value=7.8
compound="CCCCC(Sc1ccc(OCCCOc2cccc(C(C)C)c2)cc1)C(=O)O (centres undefined)" readout_kind=EC50 endpoint_unit=µM meas_value=5.3
compound="CCCCC(Sc1ccc(OCCCOc2ccccc2OC)cc1)C(=O)O (centres undefined)" readout_kind=EC50 endpoint_unit=µM meas_value=1.6
compound="CCCCC(Sc1ccc(OCCCOc2ccc(-c3ccccc3)cc2)cc1)C(=O)O (centres undefined)" readout_kind=EC50 endpoint_unit=µM meas_value=0.54
compound=CCCC[C@@H](Sc1ccc(OCCCOc2cccc(C)c2C)cc1)C(=O)O readout_kind=EC50 endpoint_unit=µM meas_value=3.9

A: Cc1cccc(OCCCOc2ccc(CCC(=O)O)cc2)c1C
B: CCCCC(Sc1ccc(OCCCOc2ccccc2C(C)C)cc1)C(=O)O (centres undefined)
# input Of A versus B , which is the one with smaller reported EC50? Reply with the label of the item you choose.
# output B

###

- STUDY_SYSTEM: Peroxisome proliferator-activated receptor alpha (Homo sapiens)
- Sequence (Q07869 whole entry, the tested form may be a part): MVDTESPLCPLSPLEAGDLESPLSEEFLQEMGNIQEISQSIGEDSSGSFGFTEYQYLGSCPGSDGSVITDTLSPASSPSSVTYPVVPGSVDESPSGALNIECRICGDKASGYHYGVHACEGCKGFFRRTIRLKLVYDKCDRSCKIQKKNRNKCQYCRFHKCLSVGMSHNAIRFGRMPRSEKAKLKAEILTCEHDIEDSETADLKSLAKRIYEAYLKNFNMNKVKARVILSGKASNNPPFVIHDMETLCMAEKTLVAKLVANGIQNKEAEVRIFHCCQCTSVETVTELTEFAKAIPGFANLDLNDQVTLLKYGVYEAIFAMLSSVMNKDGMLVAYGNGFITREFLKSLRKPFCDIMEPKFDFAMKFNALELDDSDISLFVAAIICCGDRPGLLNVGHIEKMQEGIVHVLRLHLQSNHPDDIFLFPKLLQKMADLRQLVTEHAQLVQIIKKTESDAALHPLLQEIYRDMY
- METHOD: Agonist activity at human PPARalpha expressed in african green monkey COS7 cells by Gal4 transactivation assay
READOUT_KIND: EC50 (nM)

A selection of reference data follows.
molecule="CCCCC(Sc1ccc(OCCCOc2cccc(OC)c2)cc1)C(=O)O (stereo not given)" meas_value=49
molecule="CCCCC(Sc1ccc(OCCCOc2cccc(C)c2C)cc1)C(=O)O (stereo not given)" meas_value=56
molecule="CCCCC(Sc1ccc(OCCCOc2ccccc2OC)cc1)C(=O)O (stereo not given)" meas_value=550

1: Cc1cccc(OCCCOc2ccc(CCC(=O)O)cc2)c1C
2: CCCCC(Sc1ccc(OCCCOc2cccc(C(F)(F)F)c2)cc1)C(=O)O (stereo not given)
# input Of 1 versus 2 , which is the one with smaller reported EC50? Reply with the label of the item you choose.
# output 2
(2: 25 nM, 1: 13800 nM)

###

- STUDY_SYSTEM: Peroxisome proliferator-activated receptor gamma (Homo sapiens) (UniProt P37231)
- Sequence (whole entry): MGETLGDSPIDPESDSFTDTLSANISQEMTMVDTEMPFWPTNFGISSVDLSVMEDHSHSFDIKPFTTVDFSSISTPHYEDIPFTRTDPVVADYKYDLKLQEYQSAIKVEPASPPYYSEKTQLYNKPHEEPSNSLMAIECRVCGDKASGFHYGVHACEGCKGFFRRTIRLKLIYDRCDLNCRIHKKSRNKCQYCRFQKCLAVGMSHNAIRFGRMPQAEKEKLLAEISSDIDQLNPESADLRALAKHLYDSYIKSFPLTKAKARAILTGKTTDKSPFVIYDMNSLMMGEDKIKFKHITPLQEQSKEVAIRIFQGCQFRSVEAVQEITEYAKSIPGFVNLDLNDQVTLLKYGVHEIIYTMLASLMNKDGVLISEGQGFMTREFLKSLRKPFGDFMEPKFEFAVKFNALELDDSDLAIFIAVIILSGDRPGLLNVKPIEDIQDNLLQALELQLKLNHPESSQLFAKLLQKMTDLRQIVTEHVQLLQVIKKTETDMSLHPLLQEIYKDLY
- METHOD: Agonist activity at human PPARgamma expressed in african green monkey COS7 cells at 1 uM by Gal4 transactivation assay relative to pioglitazone
- Format: functional, cell-based
- CONDITION: COS-7
READOUT_KIND: Activity (%)

compound="CCCCC(Sc1ccc(OCCCOc2cccc(C(F)(F)F)c2)cc1)C(=O)O (stereo not drawn)" readout_kind=Activity meas_value=68
compound="CCCCC(Sc1ccc(OCCCOc2ccccc2OC)cc1)C(=O)O (stereo not drawn)" readout_kind=Activity meas_value=85
compound="CCCCC(Sc1ccc(OCCCOc2ccc(C)cc2)cc1)C(=O)O (stereo not drawn)" readout_kind=Activity meas_value=87

###

- STUDY_SYSTEM: Peroxisome proliferator-activated receptor alpha (Homo sapiens) (UniProt Q07869)
- Sequence (Q07869 whole entry, the tested form may be a part): as the sequence (Q07869 whole entry, the tested form may be a part) above
- METHOD: Agonist activity at human PPARalpha expressed in african green monkey COS7 cells at 1 uM by Gal4 transactivation assay relative to GW-7647
- Type: functional, cell-based
- CONDITION: COS-7
READOUT_KIND: Activity (%)

molecule="CCCCC(Sc1ccc(OCCCOc2ccccc2C(C)C)cc1)C(=O)O (centres undefined)" endpoint_unit=% meas_value=89
molecule="CCCCC(Sc1ccc(OCCCOc2ccccc2C)cc1)C(=O)O (centres undefined)" endpoint_unit=% meas_value=64
molecule=Cc1cccc(OCCCOc2ccc(CCC(=O)O)cc2)c1C endpoint_unit=% meas_value=63
molecule=Cc1cccc(OCCCOc2ccc(SCC(=O)O)cc2)c1C endpoint_unit=% meas_value=81
molecule="CCCCC(Sc1ccc(OCCCOc2ccccc2)cc1)C(=O)O (centres undefined)" endpoint_unit=% meas_value=76
molecule="CCCCC(Sc1ccc(OCCCOc2cccc(C(F)(F)F)c2)cc1)C(=O)O (centres undefined)" endpoint_unit=% meas_value=75
molecule="CCCCC(Sc1ccc(OCCCOc2ccccc2OC)cc1)C(=O)O (centres undefined)" endpoint_unit=% meas_value=92
molecule="CCCCC(Sc1ccc(OCCCOc2cccc(OC)c2)cc1)C(=O)O (centres undefined)" endpoint_unit=% meas_value=85
molecule="CCCCC(Sc1ccc(OCCCOc2ccc(Cl)c(C(F)(F)F)c2)cc1)C(=O)O (centres undefined)" endpoint_unit=% meas_value=65

###

- STUDY_SYSTEM: Peroxisome proliferator-activated receptor alpha (Homo sapiens)
- METHOD: Agonist activity at human PPARalpha expressed in african green monkey COS7 cells at 1 uM by Gal4 transactivation assay relative to GW-7647
- Assay type: functional, cell-based
- CONDITION: COS-7
READOUT_KIND: Activity (%)

molecule="CCCCC(Sc1ccc(OCCCOc2cccc(C(C)C)c2)cc1)C(=O)O (stereo unspecified)" endpoint_unit=% meas_value=98
molecule="CCCCC(Sc1ccc(OCCCOc2cccc(C)c2)cc1)C(=O)O (stereo unspecified)" endpoint_unit=% meas_value=80
molecule="CCCCC(Sc1ccc(OCCCOc2ccc(-c3ccccc3)cc2)cc1)C(=O)O (stereo unspecified)" endpoint_unit=% meas_value=125
molecule="CCCCC(Sc1ccc(OCCCOc2cccc(C)c2C)cc1)C(=O)O (stereo unspecified)" endpoint_unit=% meas_value=113
molecule="CCCCC(Sc1ccc(OCCCOc2ccc(C)c(C)c2)cc1)C(=O)O (stereo unspecified)" endpoint_unit=% meas_value=72
molecule="CCCCC(Sc1ccc(OCCCOc2cccc3c2CCCC3)cc1)C(=O)O (stereo unspecified)" endpoint_unit=% meas_value=101
molecule=CCCC[C@H](Sc1ccc(OCCCOc2cccc(C)c2C)cc1)C(=O)O endpoint_unit=% meas_value=94
molecule="CCCCC(Sc1ccc(OCCCOc2ccc(C)cc2)cc1)C(=O)O (stereo unspecified)" endpoint_unit=% meas_value=91
molecule=CCCC[C@@H](Sc1ccc(OCCCOc2cccc(C)c2C)cc1)C(=O)O endpoint_unit=% meas_value=115
molecule="CCCCC(Cc1ccc(OCCCOc2cccc(C)c2C)cc1)C(=O)O (stereo unspecified)" endpoint_unit=% meas_value=73
molecule="CCCCC(Sc1ccc(OCCCOc2ccc3ncccc3c2)cc1)C(=O)O (stereo unspecified)" endpoint_unit=% meas_value=95

###

- STUDY_SYSTEM: Peroxisome proliferator-activated receptor gamma (Homo sapiens) (UniProt P37231)
- Sequence (whole entry): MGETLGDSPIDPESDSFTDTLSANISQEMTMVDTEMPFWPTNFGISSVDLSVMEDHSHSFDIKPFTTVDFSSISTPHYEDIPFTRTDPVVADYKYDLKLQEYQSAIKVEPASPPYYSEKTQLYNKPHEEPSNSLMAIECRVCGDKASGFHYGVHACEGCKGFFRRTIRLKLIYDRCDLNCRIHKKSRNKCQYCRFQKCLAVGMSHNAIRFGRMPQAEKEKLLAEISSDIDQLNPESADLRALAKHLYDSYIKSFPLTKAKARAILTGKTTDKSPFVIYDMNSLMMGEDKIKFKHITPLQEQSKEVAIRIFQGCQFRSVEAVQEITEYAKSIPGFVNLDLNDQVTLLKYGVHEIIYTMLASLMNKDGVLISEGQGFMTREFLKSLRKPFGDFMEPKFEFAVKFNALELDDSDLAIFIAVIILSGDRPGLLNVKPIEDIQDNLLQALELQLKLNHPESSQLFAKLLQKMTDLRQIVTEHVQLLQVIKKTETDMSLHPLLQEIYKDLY
- METHOD: Agonist activity at human PPARgamma expressed in african green monkey COS7 cells at 1 uM by Gal4 transactivation assay relative to pioglitazone
- Assay type: functional, cell-based
- CONDITION: COS-7
READOUT_KIND: Activity (%)

A selection of reference data follows.
molecule=Cc1cccc(OCCCOc2ccc(CCC(=O)O)cc2)c1C study_system="Peroxisome proliferator-activated receptor gamma (Homo sapiens) (UniProt P37231)" endpoint_unit=% meas_value=54
molecule="CCCCC(Sc1ccc(OCCCOc2cccc3c2CCCC3)cc1)C(=O)O (stereo unspecified)" study_system="Peroxisome proliferator-activated receptor gamma (Homo sapiens) (UniProt P37231)" endpoint_unit=% meas_value=107
molecule="CCCCC(Sc1ccc(OCCCOc2cccc(OC)c2)cc1)C(=O)O (stereo unspecified)" study_system="Peroxisome proliferator-activated receptor gamma (Homo sapiens) (UniProt P37231)" endpoint_unit=% meas_value=85

A: CCCCC(Sc1ccc(OCCCOc2ccc(-c3ccccc3)cc2)cc1)C(=O)O (stereo unspecified)
B: CCCCC(Sc1ccc(OCCCOc2ccc3ncccc3c2)cc1)C(=O)O (stereo unspecified)
# input API: POST /compare with A and B ; response names the item with higher Activity. Reply with the label of the item you choose.
# output A
